Values from patent US20170239237A1

Entries annotated with measured Ki
Molecular target: 5-HT7 receptor (Homo sapiens)
Assay: Radioligand binding, 5-HT7 ([3H]-5-CT displacement)

[
  {
    "COMPOUND": "O=S(=O)(c1ccccc1Br)n1ccc2c(N3CCNCC3)nc3ccccc3c21",
    "Ki / µM": 7.9
  },
  {
    "COMPOUND": "O=S(=O)(c1ccccc1)n1ccc2c(NC3CCNC3)nc3ccccc3c21 (stereo not drawn)",
    "Ki / µM": 7.89
  },
  {
    "COMPOUND": "Cc1c(S(=O)(=O)n2ccc3c(N4CCNCC4)nc4ccccc4c32)sc2ccc(Cl)cc12",
    "Ki / µM": 8.82
  }
]

###

Target: 5-HT7 receptor (Homo sapiens, UniProt P34969)
Sequence (P34969 1-432 limits assumed): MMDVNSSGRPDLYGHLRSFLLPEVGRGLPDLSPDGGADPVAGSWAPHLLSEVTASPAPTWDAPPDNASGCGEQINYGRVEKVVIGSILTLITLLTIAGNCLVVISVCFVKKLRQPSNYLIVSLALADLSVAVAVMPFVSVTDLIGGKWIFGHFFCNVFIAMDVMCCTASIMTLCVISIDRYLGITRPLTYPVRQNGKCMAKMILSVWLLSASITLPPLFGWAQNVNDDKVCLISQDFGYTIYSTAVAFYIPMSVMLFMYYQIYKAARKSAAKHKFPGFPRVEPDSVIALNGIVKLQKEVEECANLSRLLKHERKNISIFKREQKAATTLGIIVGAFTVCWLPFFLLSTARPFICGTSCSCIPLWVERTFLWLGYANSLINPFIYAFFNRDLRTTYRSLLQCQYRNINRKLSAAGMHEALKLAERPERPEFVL
Assay: Radioligand binding, 5-HT7 ([3H]-5-CT displacement)
Just a reminder that ties go to not fulfilled: only Ki strictly below 4 µM counts as fulfilled.

[
  {
    "MOLECULE": "O=S(=O)(c1ccc(C(F)(F)F)cc1)n1ccc2c(N3CCNCC3)nc3ccccc3c21 [Compound 36]",
    "TARGET_DESC": "5-HT7 receptor (Homo sapiens, UniProt P34969)",
    "GROUP_LABEL": "fulfilled"
  },
  {
    "MOLECULE": "CC(C)(C)c1ccc(S(=O)(=O)n2ccc3c(N4CCNCC4)nc4ccccc4c32)cc1 [Compound 41]",
    "TARGET_DESC": "5-HT7 receptor (Homo sapiens, UniProt P34969)",
    "GROUP_LABEL": "not fulfilled"
  },
  {
    "MOLECULE": "O=S(=O)(c1cccc(Cl)c1)n1ccc2c(N[C@H]3CCNC3)nc3ccccc3c21 [Compound 6]",
    "TARGET_DESC": "5-HT7 receptor (Homo sapiens, UniProt P34969)",
    "GROUP_LABEL": "not fulfilled"
  },
  {
    "MOLECULE": "O=S(=O)(c1cccc2ccccc12)n1ccc2c(N3CCNCC3)nc3ccccc3c21 [Compound 43]",
    "TARGET_DESC": "5-HT7 receptor (Homo sapiens, UniProt P34969)",
    "GROUP_LABEL": "fulfilled"
  }
]
